Just for reference, patent US9006450B2 is where these values come from.

For each of the compounds below, state its IC50.
# MEASURED_ON: human ACC2 (Homo sapiens)
# Construct: made in house; host or cells: insect cells (baculoviral expression system)
# Sequence (O00763 129-2458 limits assumed): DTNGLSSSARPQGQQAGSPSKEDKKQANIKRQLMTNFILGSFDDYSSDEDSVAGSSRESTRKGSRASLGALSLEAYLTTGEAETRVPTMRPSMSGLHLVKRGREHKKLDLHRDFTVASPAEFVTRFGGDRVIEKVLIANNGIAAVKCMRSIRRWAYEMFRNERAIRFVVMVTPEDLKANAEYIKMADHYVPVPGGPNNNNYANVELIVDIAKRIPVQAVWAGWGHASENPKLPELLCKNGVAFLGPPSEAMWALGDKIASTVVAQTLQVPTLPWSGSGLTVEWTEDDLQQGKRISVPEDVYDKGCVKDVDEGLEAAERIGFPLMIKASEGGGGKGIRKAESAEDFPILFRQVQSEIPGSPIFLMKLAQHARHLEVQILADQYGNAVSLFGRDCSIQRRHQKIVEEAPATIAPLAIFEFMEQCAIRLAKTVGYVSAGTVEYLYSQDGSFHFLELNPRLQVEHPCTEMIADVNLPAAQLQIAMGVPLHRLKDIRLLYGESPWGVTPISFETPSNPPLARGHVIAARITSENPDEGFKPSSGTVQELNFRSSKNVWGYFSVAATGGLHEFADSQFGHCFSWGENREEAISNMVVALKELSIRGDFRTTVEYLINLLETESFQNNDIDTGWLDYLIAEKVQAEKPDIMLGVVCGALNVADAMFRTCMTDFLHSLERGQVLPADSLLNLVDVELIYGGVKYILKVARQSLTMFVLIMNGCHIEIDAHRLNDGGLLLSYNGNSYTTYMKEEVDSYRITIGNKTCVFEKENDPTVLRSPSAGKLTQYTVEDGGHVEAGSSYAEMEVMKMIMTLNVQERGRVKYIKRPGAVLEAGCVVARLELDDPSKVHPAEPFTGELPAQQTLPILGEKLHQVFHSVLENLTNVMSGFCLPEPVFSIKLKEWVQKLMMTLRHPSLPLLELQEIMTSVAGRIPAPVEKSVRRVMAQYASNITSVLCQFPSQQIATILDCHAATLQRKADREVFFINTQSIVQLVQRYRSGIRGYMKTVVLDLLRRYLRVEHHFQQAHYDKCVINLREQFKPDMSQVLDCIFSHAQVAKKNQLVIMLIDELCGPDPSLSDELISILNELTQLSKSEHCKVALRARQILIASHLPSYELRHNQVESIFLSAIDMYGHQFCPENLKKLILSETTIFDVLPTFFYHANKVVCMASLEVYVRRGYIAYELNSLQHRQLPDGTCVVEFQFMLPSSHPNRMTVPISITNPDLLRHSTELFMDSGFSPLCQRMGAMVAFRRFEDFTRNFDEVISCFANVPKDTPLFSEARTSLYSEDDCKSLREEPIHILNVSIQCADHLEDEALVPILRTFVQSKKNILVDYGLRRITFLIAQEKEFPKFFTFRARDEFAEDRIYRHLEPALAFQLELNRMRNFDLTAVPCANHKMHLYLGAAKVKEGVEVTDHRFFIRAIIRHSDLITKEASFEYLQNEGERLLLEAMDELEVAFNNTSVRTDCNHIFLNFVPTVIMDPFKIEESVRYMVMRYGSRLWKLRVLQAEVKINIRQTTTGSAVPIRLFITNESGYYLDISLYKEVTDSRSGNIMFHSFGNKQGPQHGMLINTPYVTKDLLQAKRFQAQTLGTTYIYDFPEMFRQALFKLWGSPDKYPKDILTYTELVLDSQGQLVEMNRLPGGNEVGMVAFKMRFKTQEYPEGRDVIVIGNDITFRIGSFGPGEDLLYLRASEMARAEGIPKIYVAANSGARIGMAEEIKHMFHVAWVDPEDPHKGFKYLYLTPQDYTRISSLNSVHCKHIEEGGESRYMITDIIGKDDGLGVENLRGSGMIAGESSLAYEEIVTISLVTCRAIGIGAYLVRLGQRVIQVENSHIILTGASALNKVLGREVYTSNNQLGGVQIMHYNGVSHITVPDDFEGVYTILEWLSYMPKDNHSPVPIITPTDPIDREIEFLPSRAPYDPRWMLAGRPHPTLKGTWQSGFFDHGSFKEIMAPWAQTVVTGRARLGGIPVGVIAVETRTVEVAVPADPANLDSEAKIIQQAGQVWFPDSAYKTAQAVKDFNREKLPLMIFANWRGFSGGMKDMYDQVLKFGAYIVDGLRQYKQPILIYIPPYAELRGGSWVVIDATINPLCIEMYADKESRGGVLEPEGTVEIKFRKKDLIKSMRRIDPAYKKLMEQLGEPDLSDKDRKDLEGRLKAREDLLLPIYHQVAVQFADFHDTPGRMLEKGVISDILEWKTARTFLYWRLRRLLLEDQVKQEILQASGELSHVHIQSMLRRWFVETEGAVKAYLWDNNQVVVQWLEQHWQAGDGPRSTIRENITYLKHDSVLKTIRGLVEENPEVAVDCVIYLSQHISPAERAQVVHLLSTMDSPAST
# ASSAY_REMARKS: ACC2 assay, spectrophotometric 384 well assay (NADH-linked, coupled lactate dehydrogenase/pyruvate kinase)
# Type: biochemical
# COND: ACC2 assay, hACC2 construct lacking 128 N-terminal amino acids, 25° C., 340 nm; read-out: IC50
Write the answer as a number in nM, unit excluded.

Field IC50 (system: human ACC2 (Homo sapiens)) for entry CCOc1ccc(N2CCC(c3ccc(CC(C)NC(C)=O)cc3)CC2)c(C#N)c1 (stereo not drawn) [Example 2.11] = 1300

Let me check: C[C@H](NC(=O)C1CC1)c1ccc(C2CCN(c3ncc(-c4ccccc4F)cn3)CC2)cc1 [Example 10.103] , system human ACC2 (Homo sapiens), measured IC50 is 560

Measured IC50 for this entry CCCOc1ccc(N2CCC(c3ccc([C@H](C)NC(C)=O)cc3)CC2)cc1Cl [Example 8.34] on human ACC2 (Homo sapiens): 260
